Target: T1, huB7-H3 (human, UniProt Q5ZPR3 29-461, limits assumed)
T1 construct: Sourced antigen; construct not described; also called Human B7-H3
T1 sequence (looked up): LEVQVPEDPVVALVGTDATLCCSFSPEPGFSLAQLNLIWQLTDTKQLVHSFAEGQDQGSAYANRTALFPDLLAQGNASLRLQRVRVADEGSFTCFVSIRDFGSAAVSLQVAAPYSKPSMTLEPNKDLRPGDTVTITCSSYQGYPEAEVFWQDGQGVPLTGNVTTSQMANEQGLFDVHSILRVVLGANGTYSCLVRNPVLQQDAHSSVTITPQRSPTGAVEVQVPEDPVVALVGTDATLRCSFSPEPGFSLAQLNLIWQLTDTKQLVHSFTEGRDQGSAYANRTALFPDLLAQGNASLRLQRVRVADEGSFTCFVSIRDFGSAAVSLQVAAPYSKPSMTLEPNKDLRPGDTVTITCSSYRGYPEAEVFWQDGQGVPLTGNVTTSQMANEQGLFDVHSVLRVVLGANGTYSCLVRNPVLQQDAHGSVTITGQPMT
Assay: ELISA, absorbance 450 nm, antigen human B7-H3 (ECD) Fc

binder	binding result
ZY0EPQ-E02 murine IgG1 (antibody, V domains shown) VH: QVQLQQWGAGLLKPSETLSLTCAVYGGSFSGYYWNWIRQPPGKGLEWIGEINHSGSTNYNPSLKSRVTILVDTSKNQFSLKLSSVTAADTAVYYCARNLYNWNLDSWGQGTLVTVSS VL: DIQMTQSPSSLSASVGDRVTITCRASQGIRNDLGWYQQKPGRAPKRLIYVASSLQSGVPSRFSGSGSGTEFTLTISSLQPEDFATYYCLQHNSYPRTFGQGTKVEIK	no binding
human ZY0EPQ-E02 (antibody, V domains shown) VH: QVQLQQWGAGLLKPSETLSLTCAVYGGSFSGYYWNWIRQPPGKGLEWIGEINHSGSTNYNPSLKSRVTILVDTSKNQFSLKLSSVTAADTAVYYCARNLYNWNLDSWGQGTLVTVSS VL: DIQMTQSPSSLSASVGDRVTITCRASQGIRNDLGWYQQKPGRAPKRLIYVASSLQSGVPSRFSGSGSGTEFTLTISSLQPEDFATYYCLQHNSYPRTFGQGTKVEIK	no binding
ZY0EOB-F05 murine IgG1 (antibody, V domains shown) VH: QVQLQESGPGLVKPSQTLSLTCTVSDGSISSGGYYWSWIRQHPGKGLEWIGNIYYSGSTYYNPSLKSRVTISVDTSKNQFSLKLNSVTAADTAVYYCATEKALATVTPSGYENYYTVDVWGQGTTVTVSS VL: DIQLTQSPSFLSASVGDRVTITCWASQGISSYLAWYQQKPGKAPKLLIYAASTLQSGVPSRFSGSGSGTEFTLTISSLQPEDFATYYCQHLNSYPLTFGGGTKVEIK	no binding
